Task for the reader: assign each of the following molecules its reported pEC50.
Biological target: CLK2 kinase (Homo sapiens)
Assay: CLK2 kinase activity assay (Z-lyte FRET)
Format: biochemical
Conditions: Z-lyte Ser/Thr 6 peptide, 60 μM ATP, 1 h at room temperature
Answers are plain numbers, as −log10 of the molar value.

Worked examples, 6 molecules total:
>>> df
                                   molecule            target_or_system  measured_result
0  CN1CC=C(c2cc(C(=O)Nc3cc4cc(-c5cncc(NC(C)(C)C)n5)cnc4cn3)ccn2)CC1 [compound 612]  CLK2 kinase (Homo sapiens)             8.30
1  COc1cncc(C#Cc2c[nH]nc2C(=O)Nc2ccc(N3CCNCC3)nc2)c1 [compound 29]  CLK2 kinase (Homo sapiens)             7.60
2  CCC(=O)Nc1cncc(-c2cc3c(-c4cc5c(-c6cccc(F)c6)nccc5[nH]4)n[nH]c3cn2)c1 [compound 306]  CLK2 kinase (Homo sapiens)             8.10
3  Cc1n[nH]c2ccc(-c3cncc(N4CCC(O)CC4)n3)cc12 [compound 39]  CLK2 kinase (Homo sapiens)             7.60
4  CCC(=O)Nc1cncc(-c2ccc3[nH]nc(-c4nc5c(-c6cccc(F)c6)cncc5[nH]4)c3c2)c1 [compound 120]  CLK2 kinase (Homo sapiens)             7.64
5  CC(C)CC(=O)Nc1cncc(-c2cnc3[nH]nc(-c4cc5c(-c6cc(F)cc(CNS(C)(=O)=O)c6)nccc5[nH]4)c3c2)c1 [compound 522]  CLK2 kinase (Homo sapiens)             8.10

Record pEC50 for all entries; do not skip any.
1. Cn1cc(-c2ccc3cnc(NC(=O)c4ccc5cnccc5c4)cc3c2)cn1 [compound 560]
2. CN1CCN(c2cc(C(=O)Nc3cc4cc(-c5ccc(N)nc5)ccc4cn3)ccn2)CC1 [compound 596]
3. Nc1cncc(-c2cc3c(-c4cc5c(-c6ccncc6)cncc5[nH]4)n[nH]c3cn2)c1 [compound 381]
4. CN1CCC(Oc2ccc3[nH]c(-c4n[nH]c5ccc(-c6cnn(C)c6)cc45)nc3c2)CC1 [compound 299]
5. CN(C)CCNc1cc(F)cc(-c2ccnc3[nH]c(-c4n[nH]c5cnc(-c6cncc(NC(=O)C(C)(C)C)c6)cc45)cc23)c1 [compound 513]

(A)
8.40
9.00
8.52
9.00
8.22

Record pEC50 for all entries; do not skip any.
1. CC(C)Oc1ccc(NC(=O)c2n[nH]c3ccc(-c4cncc(CN5CCCCC5)c4)cc23)cn1 [compound 82]
2. O=C(Nc1ccc(OC(F)F)cc1)c1n[nH]c2ccc(-c3cnc4n3CCNC4)cc12 [compound 116]
3. Fc1ccc(-c2cncc3[nH]c(-c4n[nH]c5cnc(-c6cncc(CN7CCCC7)c6)cc45)nc23)s1 [compound 264]
4. CCCC(=O)Nc1cncc(-c2ccc3[nH]nc(-c4nc5c(N6CCCCC6)cncc5[nH]4)c3c2)c1 [compound 208]

(A)
7.89
9.00
8.70
8.40

---

Task for the reader: assign each of the following molecules its reported pEC50.
Target: CLK2 kinase (Homo sapiens, UniProt P49760)
Sequence (P49760 whole entry): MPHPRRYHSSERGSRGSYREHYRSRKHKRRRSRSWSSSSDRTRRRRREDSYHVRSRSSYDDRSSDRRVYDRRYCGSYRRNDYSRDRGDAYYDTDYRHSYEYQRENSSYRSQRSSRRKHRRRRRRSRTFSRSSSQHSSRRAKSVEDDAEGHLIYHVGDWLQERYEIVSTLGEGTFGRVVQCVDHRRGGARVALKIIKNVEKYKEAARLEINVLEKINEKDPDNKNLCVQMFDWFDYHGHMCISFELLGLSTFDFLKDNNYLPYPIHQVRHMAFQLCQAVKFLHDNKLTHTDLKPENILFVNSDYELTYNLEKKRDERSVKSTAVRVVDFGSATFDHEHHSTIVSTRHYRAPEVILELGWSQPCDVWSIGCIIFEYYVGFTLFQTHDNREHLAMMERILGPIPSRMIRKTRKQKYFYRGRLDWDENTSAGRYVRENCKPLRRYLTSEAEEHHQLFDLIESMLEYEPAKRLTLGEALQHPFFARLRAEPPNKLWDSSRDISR
Experiment: CLK2 kinase activity assay (Z-lyte FRET);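 note: FRET read-out as coumarin to fluorescein emission ratio, unphosphorylated peptide as 0% and phosphorylated peptide as 100% controls, duplicate reactions, non-linear regression fit of dose-response curves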
Details: Z-lyte Ser/Thr 6 peptide, 60 μM ATP, 1 h at room temperature
Numbers only, as −log10 of the molar value.

>>> df
                            smiles_notation  measurement_kind  measured_result
0  CN1CCN(c2cc(Nc3ncc4c(-c5ccc6ncccc6c5)c[nH]c4n3)ccn2)CC1             pEC50             8.70
1  O=C(Nc1ccc(CN2CCCC2)cc1)c1n[nH]c2ccc(-c3cnn(C4CC4)c3)cc12             pEC50             9.00
2  CN(C)c1cncc(-c2ccc3[nH]nc(-c4nc5c(-c6cccc(F)c6)cncc5[nH]4)c3n2)c1             pEC50             9.00

Record pEC50 for all entries; do not skip any.
1. O=C(Nc1cccnc1)c1n[nH]c2ccc(-c3cncc(NC(=O)N4CCOCC4)c3)cc12
2. COc1cncc(C(=O)Nc2c[nH]nc2C(=O)Nc2ccc(N3CCC(F)(F)C3)nc2)c1
3. Cc1n[nH]c2ccc(-c3cncc(N4CCC[C@H](N)C4)n3)cc12
4. O=C(Nc1cncc(-c2cnc3[nH]nc(-c4cc5c(-c6cccnc6)cccc5[nH]4)c3c2)c1)C1CCC1
5. CC(C)(C)CC(=O)Nc1cncc(-c2cnc3[nH]nc(-c4cc5c(-c6cccnc6)cncc5[nH]4)c3c2)c1
6. CN1CCN(c2ccnc3[nH]c(-c4n[nH]c5cnc(-c6cncc(CNCC7CCCC7)c6)cc45)cc23)CC1
7. CCC(=O)Nc1cncc(-c2cnc3[nH]nc(-c4cc5c(-c6cccnc6)cccc5[nH]4)c3c2)c1
8. CCNCc1cncc(-c2cnc3[nH]nc(-c4cc5c(-c6cc(F)cc(CNS(C)(=O)=O)c6)nccc5[nH]4)c3c2)c1

(A)
[8.40, 7.82, 7.46, 8.10, 8.52, 7.72, 8.52, 8.52]
